Reference source for all entries: the RNAGym collection of RNA variant scans (doi:10.7554/elife.80360)

Listing of recorded self-cleavage by entry.
B1: Hairpin Ribozyme (parent)
chain: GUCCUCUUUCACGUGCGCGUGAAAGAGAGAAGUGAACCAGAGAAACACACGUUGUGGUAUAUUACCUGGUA

Variants of: B1
assay-protocol: self-cleavage, relative activity (ratio to wild type); higher = more cleavage; co-transcriptional
Would you mind answering with just the numeric figure?

These recorded examples may help you get a feel for the data.
mutation-name: U7C U62C
observed-result: 0.196
--
mutation-name: C37A U67A
observed-result: 0.197

Proceed to the following item.
For the variant G57A U60C , what self-cleavage is on record? 0.205
